- Test protocol: pKa by titration with NaOH solution
- Assay type: physicochemical
- Conditions used: 50% (v/v) aqueous ethanol
Would you kindly list pKa for each of these compounds?
Give bare numbers.

>>> print(df.to_string())
                                   compound  reported_metric  test_value
0  CO/N=C(\C)C1(N(O)C(=O)OC)C(=O)N(c2ccccc2)N=C1C (centres unmarked)              pKa         9.1

We next turn to a different compound, shown below.
pKa reported for this compound CO/N=C(\C)C1(N(O)C(C)=O)C(=O)N(c2ccccc2)N=C1C (centres unmarked) : 10

Cited source: patent US10583141B2
